# ASSAY INFO: activity coefficient (dimensionless); of the first substance listed, at infinite dilution; xn = mol fraction of the nth substance listed
# COND: 373.15 K; 101 kPa; Liquid; Chromatography; x1 = 0

{"columns": ["COMPOUND", "activity coefficient"],
 "data": [
  ["CCCCCCCC [octane] + O=S1(=O)CCCC1", 48.6],
  ["CCCCCCC [heptane] + O=S1(=O)CCCC1", 38.5],
  ["CCc1ccccc1 [ethylbenzene] + O=S1(=O)CCCC1", 4.26]
]}

###

# ASSAY INFO: activity coefficient (dimensionless); of the first substance listed, at infinite dilution; xn = mol fraction of the nth substance listed
# COND: 353.15 K; 101 kPa; Liquid; Chromatography; x1 = 0
Label YES when activity coefficient < 5; otherwise NO.

{"columns": ["COMPOUND", "ASSIGNED CATEGORY"],
 "data": [
  ["CCCCCCC [heptane] + O=S1(=O)CCCC1", "NO"],
  ["CCCCCCCCCC [decane] + O=S1(=O)CCCC1", "NO"],
  ["Cc1ccccc1C [1,2-dimethylbenzene] + O=S1(=O)CCCC1", "YES"],
  ["c1ccccc1 [benzene] + O=S1(=O)CCCC1", "YES"],
  ["CCCCCCCC [octane] + O=S1(=O)CCCC1", "NO"],
  ["CCc1ccccc1 [ethylbenzene] + O=S1(=O)CCCC1", "YES"],
  ["Cc1ccccc1 [toluene] + O=S1(=O)CCCC1", "YES"]
]}

###

# ASSAY INFO: activity coefficient (dimensionless); of the first substance listed, at infinite dilution; xn = mol fraction of the nth substance listed
# COND: 333.15 K; 101 kPa; Liquid; Chromatography; x1 = 0

{"columns": ["MOLECULE", "activity coefficient"],
 "data": [
  ["c1ccccc1 [benzene] + O=S1(=O)CCCC1", 2.32],
  ["CCCCCCCCCC [decane] + O=S1(=O)CCCC1", 147],
  ["Cc1cccc(C)c1 [1,3-dimethylbenzene] + O=S1(=O)CCCC1", 5.35],
  ["CCc1ccccc1 [ethylbenzene] + O=S1(=O)CCCC1", 4.82],
  ["Cc1ccccc1 [toluene] + O=S1(=O)CCCC1", 3.46],
  ["CCCCCCCC [octane] + O=S1(=O)CCCC1", 80.7],
  ["CCCCCCC [heptane] + O=S1(=O)CCCC1", 60.3],
  ["Cc1ccccc1C [1,2-dimethylbenzene] + O=S1(=O)CCCC1", 4.57],
  ["Cc1ccc(C)cc1 [1,4-dimethylbenzene] + O=S1(=O)CCCC1", 5.51]
]}

###

# ASSAY INFO: activity coefficient (dimensionless); of the first substance listed, at infinite dilution; xn = mol fraction of the nth substance listed
# COND: 363.15 K; 101 kPa; Liquid; Chromatography; x1 = 0
Labels assigned by activity coefficient range: bin A (below 4), bin B (4 to below 40), bin C (40 or more)

{"columns": ["COMPOUND", "ASSIGNED CATEGORY"],
 "data": [
  ["c1ccccc1 [benzene] + O=S1(=O)CCCC1", "bin A"],
  ["CCCCCCCC [octane] + O=S1(=O)CCCC1", "bin C"],
  ["CCCCCCCCCC [decane] + O=S1(=O)CCCC1", "bin C"],
  ["CCCCCCC [heptane] + O=S1(=O)CCCC1", "bin C"],
  ["Cc1cccc(C)c1 [1,3-dimethylbenzene] + O=S1(=O)CCCC1", "bin B"],
  ["CCc1ccccc1 [ethylbenzene] + O=S1(=O)CCCC1", "bin B"],
  ["Cc1ccccc1 [toluene] + O=S1(=O)CCCC1", "bin A"],
  ["Cc1ccccc1C [1,2-dimethylbenzene] + O=S1(=O)CCCC1", "bin B"],
  ["Cc1ccc(C)cc1 [1,4-dimethylbenzene] + O=S1(=O)CCCC1", "bin B"]
]}

###

# ASSAY INFO: activity coefficient (dimensionless); of the first substance listed, at infinite dilution; xn = mol fraction of the nth substance listed
# COND: 373.15 K; 101 kPa; Liquid; Chromatography; x1 = 0
activity coefficient values, listed per item

{"columns": ["COMPOUND", "activity coefficient"],
 "data": [
  ["Cc1ccccc1C [1,2-dimethylbenzene] + O=S1(=O)CCCC1", 4.04],
  ["c1ccccc1 [benzene] + O=S1(=O)CCCC1", 2.25],
  ["Cc1cccc(C)c1 [1,3-dimethylbenzene] + O=S1(=O)CCCC1", 4.65],
  ["Cc1ccccc1 [toluene] + O=S1(=O)CCCC1", 3.2],
  ["Cc1ccc(C)cc1 [1,4-dimethylbenzene] + O=S1(=O)CCCC1", 4.76],
  ["CCCCCCCCCC [decane] + O=S1(=O)CCCC1", 79.8]
]}

###

# ASSAY INFO: activity coefficient (dimensionless); of the first substance listed, at infinite dilution; xn = mol fraction of the nth substance listed
# COND: 343.15 K; 101 kPa; Liquid; Chromatography; x1 = 0
RECORDED ENDPOINT: activity coefficient

{"columns": ["COMPOUND", "RECORDED ENDPOINT", "REPORTED MEASUREMENT"],
 "data": [
  ["Cc1ccccc1 [toluene] + O=S1(=O)CCCC1", "activity coefficient", 3.38],
  ["CCCCCCCCCC [decane] + O=S1(=O)CCCC1", "activity coefficient", 126],
  ["CCc1ccccc1 [ethylbenzene] + O=S1(=O)CCCC1", "activity coefficient", 4.65],
  ["CCCCCCC [heptane] + O=S1(=O)CCCC1", "activity coefficient", 53.1],
  ["c1ccccc1 [benzene] + O=S1(=O)CCCC1", "activity coefficient", 2.3],
  ["Cc1cccc(C)c1 [1,3-dimethylbenzene] + O=S1(=O)CCCC1", "activity coefficient", 5.13],
  ["Cc1ccc(C)cc1 [1,4-dimethylbenzene] + O=S1(=O)CCCC1", "activity coefficient", 5.25],
  ["CCCCCCCC [octane] + O=S1(=O)CCCC1", "activity coefficient", 70.5],
  ["Cc1ccccc1C [1,2-dimethylbenzene] + O=S1(=O)CCCC1", "activity coefficient", 4.39]
]}
